- Tested on: BEAS2B cells
- PROCEDURE DETAILS: Cell viability: resazurin assay
- Format: cell-based
- CONDITION LABEL: at concentrations indicated in Table 4
PROPERTY LABEL: effect on the viability of BEAS2B bronchial epithelial cells

MOLECULE: Cc1cc(N2CCN(c3ccc(C(=O)N[C@@H]4CCCC[C@@H]4O)cc3)CC2)ccc1OC[C@@H]1CO[C@@](Cn2cncn2)(c2ccc(F)cc2F)C1 [Compound (Id)]
ASSAY TARGET: BEAS2B cells
MEASUREMENT: no or little effect
--
MOLECULE: Cc1cc(N2CCN(c3ccc(C(=O)N[C@@H]4CCCC[C@H]4O)cc3)CC2)ccc1OC[C@@H]1CO[C@@](Cn2cncn2)(c2ccc(F)cc2F)C1 [Compound (Ib)]
ASSAY TARGET: BEAS2B cells
MEASUREMENT: no or little effect
--
MOLECULE: Cc1cc(N2CCN(c3ccc(C(=O)N[C@H]4CCCC[C@@H]4O)cc3)CC2)ccc1OC[C@@H]1CO[C@@](Cn2cncn2)(c2ccc(F)cc2F)C1 [Compound (Ia)]
ASSAY TARGET: BEAS2B cells
MEASUREMENT: no or little effect
--
MOLECULE: Cc1cc(N2CCN(c3ccc(C(=O)N[C@H]4CCCC[C@H]4O)cc3)CC2)ccc1OC[C@@H]1CO[C@@](Cn2cncn2)(c2ccc(F)cc2F)C1 [Compound (Ic)]
ASSAY TARGET: BEAS2B cells
MEASUREMENT: no or little effect

Provenance of the data: patent US10513511B2
